subject.of.test: HLA-A*6802 (human)
assay.text: competition with 125I probe peptide for purified HLA
Here, each record is paired with measured IC50 data.
attribute.measured: IC50 (nM)

> print(dat)
                                     binder  numeric.result
1                      GIMIGVLVGV [CEA.690]             500
2                     ALVGIMIGV [CEA.687L2]             102
3                     YLCGIQNSV [CEA.569L2]            3480
4  IMIGVLVGVA [CEA.691 (10-mer IMIGVLVGVA)]            1510
